Biological target: T1, TMEW1 (TMEFF2-FL-ECD-His-Avitag) (human, UniProt Q9UIK5 41-320)
T1 construct: Human TMEFF2 ECD with C-terminal G3S, 6xHis tag and Avi-tag, all in the entry; also called TMEFF2 ECD
T1 sequence: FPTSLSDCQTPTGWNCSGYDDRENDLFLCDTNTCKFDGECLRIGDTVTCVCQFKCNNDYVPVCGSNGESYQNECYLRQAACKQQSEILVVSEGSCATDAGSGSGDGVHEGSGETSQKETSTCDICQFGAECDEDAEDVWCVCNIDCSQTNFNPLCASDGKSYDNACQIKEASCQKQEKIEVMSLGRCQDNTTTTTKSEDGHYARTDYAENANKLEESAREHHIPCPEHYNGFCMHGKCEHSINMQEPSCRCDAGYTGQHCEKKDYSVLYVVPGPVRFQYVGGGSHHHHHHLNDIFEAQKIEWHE
Assay: ProteOn SPR, mAb captured on anti-human Fc, TMEFF2 as analyte
MEASURED_ATTRIBUTE: kon (M⁻¹ s⁻¹)
Note: unit M⁻¹ s⁻¹ is implicit; provide only the numeric part.

The measured kon associated with TMEB674 (antibody, human IgG4 S228P, kappa, F234A L235A, V domains shown, IgG4 PAA anti-TMEFF2; also called TMEH410/TMEL126) VH: VQLLESGGGLVQPPGGSLRLSCAASGFTFSSYSMSWVRQAPGKGLEWVSVISGGGSFTSYADSVKGRFTISRDNSNNTLYLQMSSLRAEDTAFYYCARMPLNSPHDCWGQGTLVTVSS VL: AIQMTQSPSSLSASVGDRVTITCRASQGIRNDLGWYQQKPGKAPKLLIYAASSLQSGVPSRFSGSGSGTDFTLTISSLQPEDFATYYCLQDYNYSLTFGGGTKVEIRR reads 2.01e+06
